Assay Target: MMP-13 (Homo sapiens, UniProt P45452)
Construct: made in house; host or cells: baculovirus / insect cells
Assay Summary: biochemical
Measurement Context: recombinant human MMP-13, MCA peptide substrate 4 μM, pH 7.5, room temperature; read-out: MMP-13 IC50
Please respond with true when measured IC50 is strictly beneath 10 nM, and with false in all other cases.

Field: example entries. Status: answers known.
Molecule: O=C(NO)C1(S(=O)(=O)c2ccc(N3CCC(OCc4ccc(OC(F)(F)F)cc4)CC3)cc2)CCN(C2CC2)CC1 [Example 418]
Discrete Label: true

Molecule: O=C(c1ccc(C(F)(F)F)cc1)C1CCN(c2ccc(S(=O)(=O)C3(C(=O)NO)CCOCC3)cc2)CC1 [Example 729]
Discrete Label: false

Molecule: CC1CC(C)CN(C(=O)C2CCN(c3ccc(S(=O)(=O)C4(C(=O)NO)CCN(C(=O)CNCc5cccs5)CC4)cc3)CC2)C1 (stereo not shown) [Example 282]
Discrete Label: false

Molecule: N#Cc1ccc(S(=O)(=O)N2CCN(c3ccc(S(=O)(=O)C4(C(=O)NO)CCOCC4)cc3)CC2)cc1 [Example 690]
Discrete Label: true

Molecule: Cn1ccc2cc(C(=O)C3CCN(c4ccc(S(=O)(=O)C5(C(=O)NO)CCOCC5)cc4)CC3)ccc21 [Example 867]
Discrete Label: false

Molecule: O=C(NO)C1(S(=O)(=O)c2ccc(N3CCCC(COCc4cccc(C(F)(F)F)c4)C3)cc2)CCOCC1 (stereo not shown) [Example 507]
Discrete Label: false

Task: Does the reported IC50 of O=C(NO)C1(S(=O)(=O)c2ccc(N3CCCC(COCc4ccccc4)C3)cc2)CCOCC1 (stereo not shown) [Example 504] stay below 10 nM?
Result: true
